Test system: SN12C
Experiment: NCI tumour cell line growth inhibition, 48 h
The source made the active and inactive calls. Rule as the data show it: active = GI50 up to about 1.1 µM and inactive = higher.
Would you mind answering with one of these outcomes? active, inactive

{"compound": "O=[N+]([O-])c1cc2c(c3nonc13)OCCCCO2", "group": "inactive"}

(Q) Check the results log: what was the call for COC(=O)C1=C(C(=O)OC)C2C=CC1C1C(Cl)=C(Cl)C21 (stereo not given) ?
(A) inactive

(Q) Check the results log: what was the call for COc1ccc2c(c1)c1nn(CCN(C)C)c3ccc4c(=O)n(CCN(C)C)c(=O)n2c4c13 ?
(A) active

(Q) Check the results log: what was the call for CC[N+]1(C)CCC(O)(c2ccc(Cl)cc2)C(C(=O)c2ccc(Cl)cc2)C1 (stereo not given) ?
(A) inactive

(Q) Check the results log: what was the call for CNC(C)(C)Cc1ccc(Cl)cc1 ?
(A) inactive

(Q) Check the results log: what was the call for CC(C)N1CC2CC(CN(C(=O)c3ccccc3)C2)C1.[O-][Cl+3]([O-])([O-])O ?
(A) inactive

(Q) Check the results log: what was the call for O=C1c2ccccc2C(=O)c2c(OCC3CO3)ccc(OCC3CO3)c21 (stereo not given) ?
(A) active

(Q) Check the results log: what was the call for c1cc2c(cc1NC1=NCCO1)CCCC2 ?
(A) inactive

(Q) Check the results log: what was the call for CC1(C)C2CCC1(C)C(N/C(Sc1ccccc1)=C(/C(Cl)=C(Cl)Cl)[N+](=O)[O-])C2 (stereo not given) ?
(A) inactive

(Q) Check the results log: what was the call for COC(=O)CSC(=S)Nc1nnc(NC(=S)SCOC(C)=O)n1C(=S)SCC(=O)OC ?
(A) inactive
